target: human glucagon receptor (human) (UniProt P47871); experiment: cell-based or functional assay
Sequence (P47871 26-477): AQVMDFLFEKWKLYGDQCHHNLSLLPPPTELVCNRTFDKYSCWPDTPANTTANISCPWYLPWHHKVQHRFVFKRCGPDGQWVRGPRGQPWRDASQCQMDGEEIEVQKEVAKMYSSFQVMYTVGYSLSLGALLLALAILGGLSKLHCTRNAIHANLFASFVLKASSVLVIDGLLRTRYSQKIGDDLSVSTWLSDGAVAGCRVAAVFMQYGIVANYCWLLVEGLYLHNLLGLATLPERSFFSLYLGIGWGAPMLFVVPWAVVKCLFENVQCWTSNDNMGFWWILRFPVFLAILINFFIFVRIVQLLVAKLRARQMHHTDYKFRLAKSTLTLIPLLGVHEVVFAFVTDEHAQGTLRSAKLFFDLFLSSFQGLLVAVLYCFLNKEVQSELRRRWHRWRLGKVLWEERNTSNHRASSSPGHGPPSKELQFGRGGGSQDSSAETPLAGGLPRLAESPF
reportedMetric: cAMP EC50

Solved entries:
{"columns": ["binder", "reportedMetric", "valueReported"],
 "data": [
  ["IP329 (Fc fusion) YSEGTFTSDYSKLLERQAIDEFIAELLKGGGGGGGSGGGGSGGGGSGGGGSGGGGSGGGGSA", "cAMP EC50", "> 1.43 µM"],
  ["IP343 (Fc fusion) YSEGTFTSDYAAAAERQAIDAFAAWLAAAAGGGGGSGGGGSGGGGSGGGGSA", "cAMP EC50", "> 2.07 µM"],
  ["IP385 (Fc fusion) YSEGTFTSDYSIYLDRQAIDEFIAWLLKGGGGGGGSGGGGSGGGGSGGGGSACPPC", "cAMP EC50", "> 1.56 µM"]
]}

// for each binder in input: emit cAMP EC50
1. IP342 (Fc fusion) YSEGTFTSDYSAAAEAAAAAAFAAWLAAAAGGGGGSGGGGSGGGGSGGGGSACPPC
2. IP404 (Fc fusion) YSEGTFTSLYRIHKERQAIDEFIAKLLKGGGSGGGGSGGGGSGGGGSGGGGSGGGGSGGGGSGGGGSACPPC
3. IP275 (Fc fusion) YSEGTFTSDYSKLLEKEAQRLFIEWLLKGPGGGGGSGGGGSGGGGSGGGGSATHTCPPC

["> 3.56 µM", "> 0.0172 µM", "0.23 µM"]

// for each binder in input: emit cAMP EC50
1. IP331 (Fc fusion) YSEGTFTSDYSKLLERQAIDEFIADLLKGGGGGGGSGGGGSGGGGSGGGGSGGGGSGGGGSA
2. IP387 (Fc fusion) YSEGTFISDYSIAMDKIHQQDFVNWLLAQKGGGGGSGGGGSGGGGSGGGGSGGGGSGGGGSGGGGSGGGGSACPPC
3. IP402 (Fc fusion) YSEGTFISDYSIAMDKIHQQDFVNWLLAQKGSGGGGSGGGGSGGGGSGGGGSGGGGSGGGGSGGGGSACPPC

1: > 1.95 µM; 2: 0.22 µM; 3: 0.2 µM
